procedureDetails: Lipophilicity, log P of the compound
Format: physicochemical
experimentalConditions: octanol/water
propertyLabel: logP

                               recordsmiles  measured
0  Oc1ccc2oc3ncc(OCc4ccc(Cl)cc4)c(-c4cccc(Cl)c4)c3c2c1      6.59
1  Oc1ccc2oc3ncc(OCc4ccccc4)c(-c4ccccc4)c3c2c1      5.38
2  Oc1ccc2oc3ncc(OCc4cccc(Cl)c4)c(-c4ccccc4)c3c2c1      5.97
3  Oc1ccc2oc3ncc(OCc4ccc(Cl)cc4)c(-c4ccc(Cl)cc4)c3c2c1      6.59

* * *

targetSystem: ATP-dependent translocase ABCB1 (Homo sapiens)
procedureDetails: Inhibition of ABCB1 efflux pump-mediated rhodamine 123 uptake expressed in mouse L5178Y cells assessed as fluorescence activity ratio at 10 uM
Type: cell-based
propertyLabel: Ratio

In the examples that follow, each entry is paired with its recorded Ratio.
                               recordsmiles                              targetsystem  propertylabel  measured
0  Oc1ccc2oc3ncc(OCc4ccc(Cl)cc4)c(-c4cccc(Cl)c4)c3c2c1  ATP-dependent translocase ABCB1 (Homo sapiens)          Ratio      2.61
1  Oc1ccc2oc3ncc(OCc4ccccc4)c(-c4ccccc4)c3c2c1  ATP-dependent translocase ABCB1 (Homo sapiens)          Ratio     34.49
2  Oc1ccc2oc3ncc(OCc4cccc(Cl)c4)c(-c4cccc(Cl)c4)c3c2c1  ATP-dependent translocase ABCB1 (Homo sapiens)          Ratio     17.14
3  Oc1ccc2oc3ncc(OCc4cccc(Cl)c4)c(-c4ccccc4)c3c2c1  ATP-dependent translocase ABCB1 (Homo sapiens)          Ratio     57.42
4  Oc1ccc2oc3ncc(OCc4ccccc4)c(-c4cccc(Cl)c4)c3c2c1  ATP-dependent translocase ABCB1 (Homo sapiens)          Ratio     10.47

[1] Oc1ccc2oc3ncc(OCc4ccc(Cl)cc4)c(-c4ccccc4)c3c2c1
[2] Oc1ccc2oc3ncc(OCc4ccccc4)c(-c4ccc(Cl)cc4)c3c2c1
Between these two entries, 1 and 2 , state which has the higher Ratio. Refer to your chosen entry by its label in the reply.
2
(2: 95.58, 1: 56.85)

[A] Oc1ccc2oc3ncc(OCc4ccc(Cl)cc4)c(-c4ccc(Cl)cc4)c3c2c1
[B] Oc1ccc2oc3ncc(OCc4cccc(Cl)c4)c(-c4ccc(Cl)cc4)c3c2c1
Just tell me: smaller Ratio value, A or B ? Refer to your chosen entry by its label in the reply.
A
(A: 5.92, B: 21.48)

* * *

targetSystem: ATP-dependent translocase ABCB1 (Homo sapiens, UniProt P08183)
Sequence (P08183 whole entry): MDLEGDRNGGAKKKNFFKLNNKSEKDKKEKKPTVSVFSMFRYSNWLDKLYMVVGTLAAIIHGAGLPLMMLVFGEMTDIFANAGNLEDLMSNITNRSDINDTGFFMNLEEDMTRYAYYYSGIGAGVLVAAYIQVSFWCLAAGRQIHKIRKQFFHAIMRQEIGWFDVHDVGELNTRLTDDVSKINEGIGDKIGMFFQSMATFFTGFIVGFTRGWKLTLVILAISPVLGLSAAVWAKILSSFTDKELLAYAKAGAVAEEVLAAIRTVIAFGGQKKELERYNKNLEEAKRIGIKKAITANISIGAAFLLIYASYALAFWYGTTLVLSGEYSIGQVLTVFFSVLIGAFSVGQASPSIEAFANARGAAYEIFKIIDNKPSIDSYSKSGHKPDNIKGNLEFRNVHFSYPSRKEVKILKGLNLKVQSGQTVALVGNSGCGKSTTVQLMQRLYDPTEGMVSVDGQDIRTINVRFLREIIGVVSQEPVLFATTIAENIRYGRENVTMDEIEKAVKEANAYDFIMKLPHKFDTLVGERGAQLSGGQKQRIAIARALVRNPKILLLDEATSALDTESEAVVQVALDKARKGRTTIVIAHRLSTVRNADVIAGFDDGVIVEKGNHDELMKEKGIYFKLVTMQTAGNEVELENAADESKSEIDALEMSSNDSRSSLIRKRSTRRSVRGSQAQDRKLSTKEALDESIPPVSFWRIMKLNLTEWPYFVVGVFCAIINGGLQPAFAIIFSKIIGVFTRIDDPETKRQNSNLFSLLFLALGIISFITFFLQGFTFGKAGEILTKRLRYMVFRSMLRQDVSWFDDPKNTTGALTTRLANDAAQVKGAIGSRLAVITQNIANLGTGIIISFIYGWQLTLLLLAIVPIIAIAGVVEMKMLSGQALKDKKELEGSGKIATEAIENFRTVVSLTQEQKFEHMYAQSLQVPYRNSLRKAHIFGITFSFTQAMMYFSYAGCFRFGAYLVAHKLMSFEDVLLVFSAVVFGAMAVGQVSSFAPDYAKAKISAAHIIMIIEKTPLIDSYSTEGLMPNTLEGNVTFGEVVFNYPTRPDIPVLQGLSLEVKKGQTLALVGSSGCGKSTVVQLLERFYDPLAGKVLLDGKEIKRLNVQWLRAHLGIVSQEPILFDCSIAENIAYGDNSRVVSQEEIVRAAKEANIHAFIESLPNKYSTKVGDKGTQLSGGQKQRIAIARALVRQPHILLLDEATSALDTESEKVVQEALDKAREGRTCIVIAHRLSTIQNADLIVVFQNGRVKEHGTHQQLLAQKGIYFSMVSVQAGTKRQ
procedureDetails: Inhibition of ABCB1 efflux pump-mediated rhodamine 123 uptake expressed in mouse L5178Y cells assessed as fluorescence activity ratio at 1 uM
Assay type: cell-based
propertyLabel: Ratio

                               recordsmiles  measured
0  Oc1ccc2oc3ncc(OCc4cccc(Cl)c4)c(-c4ccccc4)c3c2c1      1.26
1  Oc1ccc2oc3ncc(OCc4ccccc4)c(-c4ccc(Cl)cc4)c3c2c1      3.04
2  Oc1ccc2oc3ncc(OCc4ccc(Cl)cc4)c(-c4ccc(Cl)cc4)c3c2c1      1.11
3  Oc1ccc2oc3ncc(OCc4ccccc4)c(-c4cccc(Cl)c4)c3c2c1      1.35
4  Oc1ccc2oc3ncc(OCc4cccc(Cl)c4)c(-c4cccc(Cl)c4)c3c2c1         1

[P] Oc1ccc2oc3ncc(OCc4ccc(Cl)cc4)c(-c4ccccc4)c3c2c1
[Q] Oc1ccc2oc3ncc(OCc4ccc(Cl)cc4)c(-c4cccc(Cl)c4)c3c2c1
Between these two entries, P and Q , state which has the higher Ratio. Refer to your chosen entry by its label in the reply.
Q
(Q: 1.81, P: 1.23)

* * *

procedureDetails: Lipophilicity, log P of the compound
Type: physicochemical
experimentalConditions: octanol/water
propertyLabel: logP

                               recordsmiles  propertylabel  measured
0  Oc1ccc2oc3ncc(OCc4ccccc4)c(-c4cccc(Cl)c4)c3c2c1           logP      5.97
1  Oc1ccc2oc3ncc(OCc4ccccc4)c(-c4ccc(Cl)cc4)c3c2c1           logP      5.97
2  Oc1ccc2oc3ncc(OCc4ccc(Cl)cc4)c(-c4ccccc4)c3c2c1           logP      5.97
3  Oc1ccc2oc3ncc(OCc4cccc(Cl)c4)c(-c4ccc(Cl)cc4)c3c2c1           logP      6.59
4  Oc1ccc2oc3ncc(OCc4cccc(Cl)c4)c(-c4cccc(Cl)c4)c3c2c1           logP      6.59
